Consider the following IC50 values measured on UniProtKB P42337.
Sequence (P42337 whole entry): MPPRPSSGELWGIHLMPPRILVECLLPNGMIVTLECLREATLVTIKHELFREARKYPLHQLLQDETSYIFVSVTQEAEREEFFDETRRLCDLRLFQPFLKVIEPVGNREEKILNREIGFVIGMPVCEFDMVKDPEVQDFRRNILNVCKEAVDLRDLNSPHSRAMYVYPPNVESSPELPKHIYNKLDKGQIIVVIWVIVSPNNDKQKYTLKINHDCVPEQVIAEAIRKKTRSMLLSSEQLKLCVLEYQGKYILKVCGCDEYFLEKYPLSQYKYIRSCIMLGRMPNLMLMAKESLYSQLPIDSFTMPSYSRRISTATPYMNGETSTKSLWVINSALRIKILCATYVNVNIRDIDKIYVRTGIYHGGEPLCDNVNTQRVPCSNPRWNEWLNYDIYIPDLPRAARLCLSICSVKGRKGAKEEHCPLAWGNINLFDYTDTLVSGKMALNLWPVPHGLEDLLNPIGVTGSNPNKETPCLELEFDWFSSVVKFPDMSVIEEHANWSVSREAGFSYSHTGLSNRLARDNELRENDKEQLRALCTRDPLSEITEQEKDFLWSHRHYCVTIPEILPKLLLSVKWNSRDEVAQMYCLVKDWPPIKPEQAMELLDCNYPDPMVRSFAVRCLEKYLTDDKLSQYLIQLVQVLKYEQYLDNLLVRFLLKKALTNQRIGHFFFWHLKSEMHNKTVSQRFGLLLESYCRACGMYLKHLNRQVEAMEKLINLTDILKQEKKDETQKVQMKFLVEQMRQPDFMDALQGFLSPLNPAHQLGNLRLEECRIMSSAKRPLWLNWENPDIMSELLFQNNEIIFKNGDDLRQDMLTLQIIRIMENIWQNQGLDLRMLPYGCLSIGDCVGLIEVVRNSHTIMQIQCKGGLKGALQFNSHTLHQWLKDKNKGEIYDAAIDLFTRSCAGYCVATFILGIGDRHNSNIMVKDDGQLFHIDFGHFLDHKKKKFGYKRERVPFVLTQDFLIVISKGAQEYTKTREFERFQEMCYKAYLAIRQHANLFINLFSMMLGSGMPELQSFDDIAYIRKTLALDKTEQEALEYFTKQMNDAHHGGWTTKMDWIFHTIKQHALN
Sequence (P26450 whole entry partner): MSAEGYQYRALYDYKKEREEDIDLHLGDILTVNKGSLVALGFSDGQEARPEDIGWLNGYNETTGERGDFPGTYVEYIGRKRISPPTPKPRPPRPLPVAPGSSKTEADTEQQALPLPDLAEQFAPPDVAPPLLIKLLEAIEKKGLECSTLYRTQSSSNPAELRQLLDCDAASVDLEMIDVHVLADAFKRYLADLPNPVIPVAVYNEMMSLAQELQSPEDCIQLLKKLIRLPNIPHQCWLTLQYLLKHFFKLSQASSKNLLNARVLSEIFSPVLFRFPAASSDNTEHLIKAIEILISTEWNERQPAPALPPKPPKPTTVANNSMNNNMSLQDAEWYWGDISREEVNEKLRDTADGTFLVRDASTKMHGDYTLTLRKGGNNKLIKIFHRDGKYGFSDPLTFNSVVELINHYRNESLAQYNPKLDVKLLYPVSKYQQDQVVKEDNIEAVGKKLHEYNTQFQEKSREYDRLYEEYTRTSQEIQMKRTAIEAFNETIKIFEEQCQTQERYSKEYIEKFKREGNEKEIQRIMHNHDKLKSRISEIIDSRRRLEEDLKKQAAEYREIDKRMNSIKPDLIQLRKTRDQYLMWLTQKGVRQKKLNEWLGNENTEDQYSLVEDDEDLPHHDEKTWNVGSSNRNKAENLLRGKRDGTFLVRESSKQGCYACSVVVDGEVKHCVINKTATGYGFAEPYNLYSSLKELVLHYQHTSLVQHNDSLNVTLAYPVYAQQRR
reported_endpoint: IC50 (nM)

Cc1nc(N)nc2c1cc(-c1c[nH]nn1)c(=O)n2C(C)C [Compound 264] | 62
COc1ccc(-c2cc3c(C)nc(N)nc3n([C@@H]3CC[C@@H](O)C3)c2=O)cn1 [Compound 159] | 4.6
C=CCn1c(=O)c(-c2ccc(OC)nc2)cc2c(C)nc(NC)nc21 [Compound 110] | 17
CCNc1nc(C)c2cc(-c3cccc(OC)c3)c(=O)n(C3CCCC3)c2n1 [Compound 142] | 792
Cc1nc(N)nc2c1cc(-c1cnn(C)c1)c(=O)n2[C@H]1CC[C@H](OCCO)CC1 [Compound 302] | 22.3
